Hi there, I'd appreciate the recorded AC50 for every entry that follows.

Incoming: Look up D(3) dopamine receptor (Homo sapiens) data: AC50 of CN(CC1(C)CCCO1)S(=O)(=O)c1ccc(Cl)c(S(N)(=O)=O)c1 (stereo unspecified) [MEFRUSIDE] , then report it.
Outgoing: > 30 µM

Incoming: Look up D(3) dopamine receptor (Homo sapiens) data: AC50 of `Oc1ccc2c(c1)[C@@]13CCCC[C@@]1(O)[C@@H](C2)N(CC1CCC1)CC3` , then report it.
Outgoing: > 30 µM

Incoming: With D(3) dopamine receptor (Homo sapiens) as the test system, provide measured AC50 for this compound: `CN(C)CCCNc1c2ccccc2nc2cccc([N+](=O)[O-])c12`
Sequence (P35462 whole entry): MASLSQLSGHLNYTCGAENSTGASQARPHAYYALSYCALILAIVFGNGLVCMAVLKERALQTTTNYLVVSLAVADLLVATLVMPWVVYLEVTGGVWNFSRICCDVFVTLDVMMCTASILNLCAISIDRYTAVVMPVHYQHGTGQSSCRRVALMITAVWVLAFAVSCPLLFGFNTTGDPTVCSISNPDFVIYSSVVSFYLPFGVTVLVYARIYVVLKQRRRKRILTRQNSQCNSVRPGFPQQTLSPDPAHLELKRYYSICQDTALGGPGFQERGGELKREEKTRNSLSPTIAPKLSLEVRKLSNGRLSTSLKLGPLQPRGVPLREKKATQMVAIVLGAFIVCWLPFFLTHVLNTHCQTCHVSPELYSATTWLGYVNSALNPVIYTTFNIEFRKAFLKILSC
Outgoing: 9.8 µM

Incoming: Specify AC50 for CC(C)NCC(O)c1ccc(O)c(O)c1 (stereo unspecified) , system D(3) dopamine receptor (Homo sapiens). Note: assay procedure not described here.
Outgoing: > 30 µM

Incoming: Output reported AC50 of the compound `CN1C(C(=O)Nc2ccccn2)=C(O)c2ccccc2S1(=O)=O` on D(3) dopamine receptor (Homo sapiens).
Outgoing: > 30 µM

Incoming: Please look at `COc1ccc2nc3cc(Cl)ccc3c(Nc3cc(CN4CCCC4)c(O)c(CN4CCCC4)c3)c2n1` and tell me its recorded AC50 on D(3) dopamine receptor (Homo sapiens).
Outgoing: 21 µM

Incoming: Provide measured AC50 on D(3) dopamine receptor (Homo sapiens) for `C/N=C(\NC)NCc1ccccc1` please.
Outgoing: > 30 µM

Incoming: Fill in AC50 for CC(CCc1ccc(O)cc1)NCCc1ccc(O)c(O)c1 (stereo unspecified) tested with D(3) dopamine receptor (Homo sapiens).
Outgoing: 0.728 µM

Incoming: Report AC50 under test system D(3) dopamine receptor (Homo sapiens) for CC(C)COCC(CN(Cc1ccccc1)c1ccccc1)N1CCCC1 (stereo unspecified) . Note: assay procedure not described here.
Outgoing: 2.6 µM

Incoming: Fetch value of AC50 on D(3) dopamine receptor (Homo sapiens) for `[H]/N=C(/N)N/C(=N/[H])NCCc1ccccc1` .
Outgoing: > 30 µM

Incoming: // fetch AC50 for CCC1(c2ccccc2)CCC(=O)NC1=O (stereo unspecified) [GLUTETHIMIDE] ; system: D(3) dopamine receptor (Homo sapiens); note: assay procedure not described here
Outgoing: > 30 µM

Incoming: # lookup: D(3) dopamine receptor (Homo sapiens) AC50, key = CC(C)N(CCC(C(N)=O)(c1ccccc1)c1ccccn1)C(C)C (stereo unspecified) [DISOPYRAMIDE]
Outgoing: > 30 µM

Incoming: # return AC50 for `CC(=O)[C@@]1(O)CC[C@H]2[C@@H]3C=C(Cl)C4=CC(=O)[C@@H]5C[C@@H]5[C@]4(C)[C@H]3CC[C@@]21C` , test system: D(3) dopamine receptor (Homo sapiens); note: assay procedure not described here
Outgoing: > 30 µM

Incoming: // output AC50; input `CO[C@H]1/C=C/O[C@@]2(C)Oc3c(C)c(O)c4c(O)c(c(/C=N/N5CCN(C)CC5)c(O)c4c3C2=O)NC(=O)/C(C)=C\C=C\[C@H](C)[C@H](O)[C@@H](C)[C@@H](O)[C@@H](C)[C@H](OC(C)=O)[C@@H]1C` ; system D(3) dopamine receptor (Homo sapiens); note: assay procedure not described here
Outgoing: 11 µM

Incoming: // output AC50; input `COCC1=C(C(=O)O)N2C(=O)[C@@H](NC(=O)/C(=N\OC)c3csc(N)n3)[C@H]2SC1` ; system D(3) dopamine receptor (Homo sapiens); note: assay procedure not described here
Outgoing: > 30 µM

Incoming: State AC50 (D(3) dopamine receptor (Homo sapiens)) of C#CCOc1ccc(N)cc1C(=O)NCCCC [PARSALMIDE] .
Outgoing: > 30 µM

Incoming: Under D(3) dopamine receptor (Homo sapiens), report AC50 for `C=C[C@H]1C[N@@]2CC[C@H]1C[C@@H]2[C@@H](O)c1ccnc2ccc(OC)cc12`
Outgoing: 2.8 µM

Incoming: Give reported AC50 for CC(C)Cc1ccc(C(C)C(=O)O)cc1 (stereo unspecified) (D(3) dopamine receptor (Homo sapiens))
Outgoing: > 30 µM

Incoming: Give measured AC50 for `COc1ccc(-c2noc(CC(=O)O)c2-c2ccc(OC)cc2)cc1` (D(3) dopamine receptor (Homo sapiens)).
Outgoing: > 30 µM

Incoming: Report value only: AC50, D(3) dopamine receptor (Homo sapiens), `Cc1cc2cc3c(C)cc(=O)oc3c(C)c2o1`
Outgoing: > 30 µM

Incoming: Report the value of AC50 obtained on D(3) dopamine receptor (Homo sapiens) for C[C@]12C=CC(=O)N[C@@H]1CC[C@@H]1[C@@H]2CC[C@]2(C)[C@@H](C(=O)Nc3cc(C(F)(F)F)ccc3C(F)(F)F)CC[C@@H]12 [DUTASTERIDE] .
Outgoing: > 30 µM

Incoming: Give AC50 only, for `OC[C@H]1O[C@@](CO)(O[C@H]2O[C@H](CO)[C@@H](O)[C@H](O)[C@H]2O)[C@@H](O)[C@@H]1O` , using D(3) dopamine receptor (Homo sapiens) data.
Outgoing: > 30 µM

Incoming: Consider the compound `C[C@@H](Oc1cc(-c2cnn(C3CCNCC3)c2)cnc1N)c1c(Cl)ccc(F)c1Cl` tested on D(3) dopamine receptor (Homo sapiens); state its AC50. Note: assay procedure not described here.
Outgoing: > 30 µM

Incoming: Report value: AC50, system: D(3) dopamine receptor (Homo sapiens), compound: CC1=C(C)C(=O)C(C(CCCCCC(=O)O)c2ccccc2)=C(C)C1=O (stereo unspecified); note: assay procedure not described here
Outgoing: > 30 µM

Incoming: Look up and report AC50, with D(3) dopamine receptor (Homo sapiens) as system, for CCOC(=O)c1cncn1[C@H](C)c1ccccc1 [ETOMIDATE]
Outgoing: > 30 µM

Incoming: Give AC50 for this entry on D(3) dopamine receptor (Homo sapiens): `Nc1ncn([C@H]2C[C@H](O)[C@@H](CO)O2)c(=O)n1`
Outgoing: > 30 µM

Incoming: Please report AC50 with D(3) dopamine receptor (Homo sapiens) for item CNC1=Nc2ccc(Cl)cc2C(c2ccccc2)=[N+]([O-])C1 [CHLORDIAZEPOXIDE] .
Outgoing: > 30 µM

Incoming: Enter measured AC50, system D(3) dopamine receptor (Homo sapiens), for the compound shown: CCN(CC)CCNC(=O)c1cc(S(C)(=O)=O)ccc1OC [TIAPRIDE]; note: assay procedure not described here
Outgoing: 0.36 µM

Incoming: State AC50 (D(3) dopamine receptor (Homo sapiens)) of `Cc1cc(C(C)(C)C)cc(C)c1CC1=NCCN1` .
Outgoing: 3.87 µM

Incoming: Identify measured AC50 obtained with D(3) dopamine receptor (Homo sapiens) for `CCCC(CCC)C(=O)O` .
Outgoing: 4.7 µM

Incoming: Provide AC50, tested on D(3) dopamine receptor (Homo sapiens), for `O=C1CN(/N=C/c2ccc(-c3ccc([N+](=O)[O-])cc3)o2)C(O)=N1` . Note: assay procedure not described here.
Outgoing: > 30 µM

Incoming: Enter recorded AC50 with D(3) dopamine receptor (Homo sapiens) for `Cc1onc(-c2ccccc2)c1-c1ccc(S(N)(=O)=O)cc1` here.
Outgoing: > 30 µM

Incoming: Specify the recorded AC50 for `C/C(=C\C(=O)OCCCCCCCCC(=O)O)C[C@@H]1OC[C@H](C[C@@H]2O[C@H]2[C@@H](C)[C@H](C)O)[C@@H](O)[C@H]1O` , system: D(3) dopamine receptor (Homo sapiens). Note: assay procedure not described here.
Outgoing: > 30 µM

Incoming: Would you please give the reported AC50 of Clc1ccc(C(Cn2ccnc2)OCc2ccsc2Cl)c(Cl)c1 (stereo unspecified) with D(3) dopamine receptor (Homo sapiens)?
Outgoing: 24 µM

Incoming: # return AC50 for `CCCN(CCC)C(=O)Cc1c(-c2ccc(Cl)cc2)nc2ccc(Cl)cn12` , test system: D(3) dopamine receptor (Homo sapiens); note: assay procedure not described here
Outgoing: > 30 µM

Incoming: Specify AC50 for `Cc1ncc2n1-c1ccc(Cl)cc1C(c1ccccc1F)=NC2` , system D(3) dopamine receptor (Homo sapiens). Note: assay procedure not described here.
Outgoing: 10 µM
